- target.desc: T1, native membrane bound porcine CD163 on primary porcine alveolar macrophages (porcine, UniProt Q2VL90 47-1115)
- T1 construct: also called PAM CD163-WT; pPAM
- T1 sequence: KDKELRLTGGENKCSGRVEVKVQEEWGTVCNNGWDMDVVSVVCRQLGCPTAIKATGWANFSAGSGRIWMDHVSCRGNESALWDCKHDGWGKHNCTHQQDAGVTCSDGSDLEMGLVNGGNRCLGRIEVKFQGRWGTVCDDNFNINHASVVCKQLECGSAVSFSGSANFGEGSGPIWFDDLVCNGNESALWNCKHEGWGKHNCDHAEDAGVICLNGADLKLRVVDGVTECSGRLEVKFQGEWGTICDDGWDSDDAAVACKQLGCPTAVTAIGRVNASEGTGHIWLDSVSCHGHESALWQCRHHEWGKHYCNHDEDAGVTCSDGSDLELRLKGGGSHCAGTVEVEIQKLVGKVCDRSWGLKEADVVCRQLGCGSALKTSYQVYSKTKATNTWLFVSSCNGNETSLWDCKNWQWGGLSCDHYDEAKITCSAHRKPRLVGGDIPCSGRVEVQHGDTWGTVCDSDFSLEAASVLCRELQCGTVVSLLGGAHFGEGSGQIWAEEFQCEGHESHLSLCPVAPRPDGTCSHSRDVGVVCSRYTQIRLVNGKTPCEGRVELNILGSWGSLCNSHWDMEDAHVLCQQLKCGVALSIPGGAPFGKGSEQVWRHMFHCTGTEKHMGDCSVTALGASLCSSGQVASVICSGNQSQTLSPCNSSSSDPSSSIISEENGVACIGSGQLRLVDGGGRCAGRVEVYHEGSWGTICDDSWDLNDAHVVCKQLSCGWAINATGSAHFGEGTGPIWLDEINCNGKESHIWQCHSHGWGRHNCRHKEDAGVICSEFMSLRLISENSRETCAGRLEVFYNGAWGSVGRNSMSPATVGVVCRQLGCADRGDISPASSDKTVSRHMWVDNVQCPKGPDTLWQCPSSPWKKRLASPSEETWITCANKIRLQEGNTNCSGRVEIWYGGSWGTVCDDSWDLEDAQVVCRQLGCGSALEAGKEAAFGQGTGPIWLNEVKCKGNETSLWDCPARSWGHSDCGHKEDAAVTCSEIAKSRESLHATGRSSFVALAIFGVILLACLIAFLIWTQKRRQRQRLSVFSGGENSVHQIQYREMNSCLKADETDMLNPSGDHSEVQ
- experiment.summary: flow cytometry, PAM CD163-WT, RT
result.type: % Binding

QUERY: Data request, read-out % Binding, for VHH 020 (3H11) (VHH, Llama single domain antibody; also called 48(#20); VHCDR3 48(#20); not shown: tags: c-myc tag in periplasmic extract (ELISA, FACS); FLAG and His tags in purified VHH (SPR, infection assays)) VHH: QVQLQESGGGLVQVGGSLRLSCVASGRTPSRYVMGWFRQAPGQEREFVAGIAWSGRAPYADSVKGRFVISRDSAKNTVYLQMNSLKSEDTGVYYCAGGEGAILWTTPGAYNYWGQGTQVTVSS
RESULT: 81.5%

QUERY: Data request, read-out % Binding, for VHH 008 (1H01) (VHH, Llama single domain antibody; also called 78(#8); VHCDR3 78(#8); not shown: tags: c-myc tag in periplasmic extract (ELISA, FACS); FLAG and His tags in purified VHH (SPR, infection assays)) VHH: QVQLVESGGGLVQAGGSLRLSCAASGRTFGTYSMGWFRQAPGKEREFVAAHRWSGSAYYAEHADSVEGRFTISRDYAKNMLYLQMNSLKHEDTAVYYCAAGVGSEAQYRYWGRGTQVTVSS
RESULT: 0.87%

QUERY: Data request, read-out % Binding, for VHH 017 (3D03) (VHH, Llama single domain antibody; also called 29(#17); VHCDR3 29(#17); not shown: tags: c-myc tag in periplasmic extract (ELISA, FACS); FLAG and His tags in purified VHH (SPR, infection assays)) VHH: QLQLVESGGGLVQPGGSLRLSCAASGFTLDDYTIGWFRQAPGKEREGVSCINSITSNTYYADSVKGRFTISRDNAKNTVYLQMNSLTAEDTAIYYCAADSGLFSGSSCLKYRAMRFGSWGQGTQVTVSS
RESULT: 37.2%

QUERY: Data request, read-out % Binding, for VHH 012 (2C07) (VHH, Llama single domain antibody; also called 41(#12); VHCDR3 41(#12); not shown: tags: c-myc tag in periplasmic extract (ELISA, FACS); FLAG and His tags in purified VHH (SPR, infection assays)) VHH: QLQLVESGGGLVQAGGSLRLSCVASGRTFSRYAMGWFRQAPGKEREFVAAIAWSTGSTYYANSVKGRFAISGDNAKNTVYLQMNSLKPEDTAVYYCAAETRYCSGFGCLDPRTYGSWGQGTQVTVSS
RESULT: 91.5%

These data points were gathered from patent US20230203185A1.
